- targetOrSystem: T1, α-CT coiled-coil domain fused with HIS tag (α-CT-His), fluorescently labeled (Arabidopsis thaliana, fluorescently labeled using His-tag labeling kit (NanoTemper, MO-L008))
- T1 chain: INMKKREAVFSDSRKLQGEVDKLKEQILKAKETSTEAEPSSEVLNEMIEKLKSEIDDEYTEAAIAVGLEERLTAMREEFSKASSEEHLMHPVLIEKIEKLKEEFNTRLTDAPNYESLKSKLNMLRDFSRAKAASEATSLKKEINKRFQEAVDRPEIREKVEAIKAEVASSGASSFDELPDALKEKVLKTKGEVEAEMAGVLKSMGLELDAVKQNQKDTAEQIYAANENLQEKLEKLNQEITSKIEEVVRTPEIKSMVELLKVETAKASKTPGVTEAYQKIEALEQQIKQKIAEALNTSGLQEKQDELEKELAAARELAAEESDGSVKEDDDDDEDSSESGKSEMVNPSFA
- testDescription: MST

binder	Kd
coiled-coil domain of CTI1 fused with HIS tag (domain or fragment) PQISKAIAGADRKDLMRKLPKFIYDEEKALEKTRKVLAEKIAQLNSAIDDVSSQLKSEDTPNGAALSTDEIEATA	14.8 nM
